Value source: patent US20250136677A1

Reported ELISA OD values follow for various binders
Biological target: T1, wildtype feline IL-31 protein (Feline_IL31_wildtype) (feline)
T1 construct: Full length feline IL-31 with C-terminal His tag, secreted from ExpiCHO cells; also called fIL-31
T1 chain: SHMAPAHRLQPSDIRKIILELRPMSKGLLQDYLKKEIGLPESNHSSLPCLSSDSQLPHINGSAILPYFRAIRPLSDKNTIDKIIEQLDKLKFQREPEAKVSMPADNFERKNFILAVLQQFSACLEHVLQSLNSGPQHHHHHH
Assay: indirect ELISA, IL-31 protein coated
State just the number; it will be interpreted in OD.

Please look up its ELISA OD: ZIL159 (recombinant fully canine antibody) (antibody, V domains shown, also called CAN-ZIL159) VH: EVQLVESGGDLVKPAGSLRLSCVASGFTFSSYVMTWVRQAPGKGLQWVAGINSEGSRTAYADAVKGRFTISRDNAKNTLYLQIDSLRAEDTAIYYCATGDIVATGTSYWGQGTLVTVSS VL: SNVLTQPPSVSVSLGQTATISCSGETLNRFYTQWFQQKAGQAPVLVIYKDTERPSGIPDRFSGSSSGNIHTLTISGARAEDEAAYYCKSAVSIDVGVFGGGTHLTVFR
1.6

Others:
Form field: reported ELISA OD of ZIL154 (recombinant fully canine antibody) (antibody, V domains shown, Fully canine IgG; also called CAN-ZIL154) VH: EVHLVESGGDLVKPWGSLRLSCVASGFTFSDRGMSWVRQSPGKGLQWVAYIRYDGSRTDYADAVEGRFTISRDNAKNTLYLQMNSLRAEDTAVYYCARWDGSSFDYWGQGTLVTVSS VL: DIVVTQTPLSLSVSPGETASFSCKASQSLLHSDGNTYLDWFRQKPGQSPQRLIYKVSNRDPGVPDRFSGSGSGTDFTLRISGVEADDAGLYYCMQAIHFPLTFGAGTKVELKR
1.62

Recorded ELISA OD for mouse anti IL-31 antibody 11E12 (antibody, V domains shown, Mouse monoclonal comparison antibody; also called MU-11E12; mouse 11E12) VH: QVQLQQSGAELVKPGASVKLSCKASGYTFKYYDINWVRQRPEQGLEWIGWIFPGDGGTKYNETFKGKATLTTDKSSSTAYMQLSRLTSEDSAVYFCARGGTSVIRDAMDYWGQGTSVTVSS VL: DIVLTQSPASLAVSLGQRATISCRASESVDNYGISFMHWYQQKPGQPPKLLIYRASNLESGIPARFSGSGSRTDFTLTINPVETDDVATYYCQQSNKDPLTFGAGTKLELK , please?
1.15
